Quick list: selectivity ratio per entry.
Assay: Selectivity index, ratio of CC50 for human MT4 cells to EC50 for HIV-1 NL4.3 infected in human MT4 cells
MEASUREMENT_TYPE: selectivity ratio

# COMPOUND, READING
data = [
    ("CN[C@@H]1[C@H](O[C@@H]2OC[C@@H](O)[C@H](O)[C@H]2O)[C@@H](O)[C@H](O[C@H]2c3cc(C)c(C(=O)N[C@H](C)C(=O)O)c(O)c3-c3c(cc4c(c3O)C(=O)c3cc(OC)cc(O)c3C4=O)[C@@H]2O)O[C@@H]1C [PRADIMICIN A]", "> 30.3"),
    ("O=C(CCC(CCC(=O)NC(Cc1c(-c2cccc(C(=O)O)c2)[nH]c2ccccc12)C(=O)O)(CCC(=O)NC(Cc1c(-c2cccc(C(=O)O)c2)[nH]c2ccccc12)C(=O)O)[N+](=O)[O-])NC(Cc1c(-c2cccc(C(=O)O)c2)[nH]c2ccccc12)C(=O)O (centres undefined)", "> 6"),
    ("O=C(CCC(CCC(=O)NC(Cc1cn(Cc2ccc(F)cc2)c2ccccc12)C(=O)O)(CCC(=O)NC(Cc1cn(Cc2ccc(F)cc2)c2ccccc12)C(=O)O)[N+](=O)[O-])NC(Cc1cn(Cc2ccc(F)cc2)c2ccccc12)C(=O)O (centres undefined)", "> 2.3"),
    ("O=C(CCC(CCC(=O)NC(Cc1c(-c2ccccc2F)[nH]c2ccccc12)C(=O)O)(CCC(=O)NC(Cc1c(-c2ccccc2F)[nH]c2ccccc12)C(=O)O)[N+](=O)[O-])NC(Cc1c(-c2ccccc2F)[nH]c2ccccc12)C(=O)O (centres undefined)", "> 3"),
]
